- target_under_test: Aurora kinase B (Homo sapiens, UniProt Q96GD4)
- Sequence (Q96GD4 whole entry): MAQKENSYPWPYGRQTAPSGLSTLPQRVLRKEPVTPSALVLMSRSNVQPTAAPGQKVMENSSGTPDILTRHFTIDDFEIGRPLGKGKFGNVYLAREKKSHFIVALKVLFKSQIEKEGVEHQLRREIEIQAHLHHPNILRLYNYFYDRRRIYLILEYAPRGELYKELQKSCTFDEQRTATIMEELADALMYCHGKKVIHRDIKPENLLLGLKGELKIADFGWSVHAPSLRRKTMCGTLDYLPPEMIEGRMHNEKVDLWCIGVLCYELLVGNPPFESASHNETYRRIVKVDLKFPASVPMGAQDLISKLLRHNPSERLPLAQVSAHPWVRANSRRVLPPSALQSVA
observation_type: IC50

Summary: COc1ccc(Oc2cc(C)c(-c3csc(NC(=O)c4ccnc(F)c4)n3)c(C)c2)cc1 , Aurora kinase B (Homo sapiens, UniProt Q96GD4), IC50 = > 10 µM

----------
- target_under_test: Mast/stem cell growth factor receptor Kit (Homo sapiens, UniProt P10721)
- Sequence (P10721 whole entry): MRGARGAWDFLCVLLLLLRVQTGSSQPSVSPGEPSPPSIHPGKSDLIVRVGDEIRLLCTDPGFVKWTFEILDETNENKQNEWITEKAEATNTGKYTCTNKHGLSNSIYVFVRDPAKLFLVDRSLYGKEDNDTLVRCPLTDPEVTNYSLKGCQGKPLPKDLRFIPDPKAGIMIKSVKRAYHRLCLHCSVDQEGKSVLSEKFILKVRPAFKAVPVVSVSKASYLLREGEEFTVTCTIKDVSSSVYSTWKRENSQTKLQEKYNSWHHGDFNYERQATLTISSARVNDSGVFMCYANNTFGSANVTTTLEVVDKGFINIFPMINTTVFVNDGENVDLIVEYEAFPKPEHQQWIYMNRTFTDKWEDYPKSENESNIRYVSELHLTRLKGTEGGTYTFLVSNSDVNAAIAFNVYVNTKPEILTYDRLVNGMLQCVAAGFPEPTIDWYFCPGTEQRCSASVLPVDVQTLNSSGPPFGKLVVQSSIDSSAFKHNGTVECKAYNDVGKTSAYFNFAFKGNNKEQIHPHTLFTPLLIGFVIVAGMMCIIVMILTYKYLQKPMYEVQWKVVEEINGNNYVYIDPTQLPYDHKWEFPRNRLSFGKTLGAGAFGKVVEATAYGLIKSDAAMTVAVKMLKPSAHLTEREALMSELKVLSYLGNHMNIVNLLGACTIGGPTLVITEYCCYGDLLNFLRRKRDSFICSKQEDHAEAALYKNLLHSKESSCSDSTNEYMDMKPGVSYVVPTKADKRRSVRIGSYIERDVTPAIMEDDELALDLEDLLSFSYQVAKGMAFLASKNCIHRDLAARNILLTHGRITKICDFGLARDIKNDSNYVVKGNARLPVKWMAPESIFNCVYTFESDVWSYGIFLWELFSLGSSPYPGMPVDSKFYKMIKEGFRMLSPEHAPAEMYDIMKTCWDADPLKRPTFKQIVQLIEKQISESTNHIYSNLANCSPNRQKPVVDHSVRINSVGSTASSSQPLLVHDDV
observation_type: IC50

With Mast/stem cell growth factor receptor Kit (Homo sapiens, UniProt P10721) as the test system, COc1ccc(Oc2cc(C)c(-c3csc(NC(=O)c4ccnc(F)c4)n3)c(C)c2)cc1 showed IC50 of > 10 µM

----------
- Tested on: HeLa
- assay_summary: Antiproliferative activity against human HeLa cells assessed as cell viability after 96 hrs by CellTiter96 assay
- Format: functional, cell-based
pIC50: −log10 of the molar value.
Assign Condition met to entries whose pIC50 meets or exceeds 7; assign Condition not met to the rest.

*Q* For this compound, is measured pIC50 7 or higher? Cc1cc(C)c(-c2csc(NC(=O)Cc3ccncc3)n2)c(C)c1
*A* Condition not met

*Q* API: above_or_equal(metric=pIC50, cutoff=7) for item COc1ccc(Oc2cc(C)c(-c3csc(NC(=O)c4ccncc4)n3)c(C)c2)cc1
*A* Condition met

*Q* Hi, just wondering whether Cc1cc(C)c(-c2csc(NC(=O)c3ccccc3)n2)c(C)c1 shows pIC50 of 7 or higher.
*A* Condition not met

More entries:
*Q* Confirm if pIC50 reported for the compound COc1ccc(Oc2cc(C)c(-c3csc(NC(=O)c4ccnc(F)c4)n3)c(C)c2)cc1 is 7 or above.
*A* Condition met

Cited source: ChEMBL document CHEMBL3259640
